# key: entry, value: log10 of GI50 at 72 h
Assay: Cytotoxicity against human BEAS2B cells after 72 hrs by MTT assay
Format: cell-based, BEAS-2B
Conditions: BEAS2B cells
Please keep in mind that the values are log10 of GI50 at 72 h expressed in µM.

>  <compound>
CSc1nc(NCCCCCO)c2ccccc2n1

>  <result.number>
1.59

$$$$
>  <compound>
CCCCC[Se]c1nc(NCc2ccccc2)c2ccccc2n1

>  <result.number>
1.64

$$$$
>  <compound>
COc1ccc(CNc2nc(SC)nc3ncccc23)cc1

>  <result.number>
1.77

$$$$
>  <compound>
CSc1nc(Nc2ccccc2)c2ccccc2n1

>  <result.number>
1.74

$$$$
>  <compound>
CCCCCSc1nc(O)c2ccccc2n1

>  <result.number>
1.71

$$$$
>  <compound>
CSc1nc(NCCc2ccccc2)c2ccccc2n1

>  <result.number>
1.62

$$$$

Entry CSc1nc(NCc2ccccc2)c2cccnc2n1 ; log10 of GI50 at 72 h = 1.41

log10 of GI50 at 72 h in this record for C[Se]c1nc(N)c2ccccc2n1 : 1.37

Field log10 of GI50 at 72 h (entry [SeH]c1nc(NCc2ccccc2)c2ccccc2n1 ) reads 0.55

Documented log10 of GI50 at 72 h of CSc1nc(NCCCc2ccccc2)c2ccccc2n1 : 1.87

Notebook: Nc1nc([SeH])nc2ccccc12 , log10 of GI50 at 72 h read as -1.10

So, CSc1nc(NCCCCc2ccccc2)c2ccccc2n1 ? Its log10 of GI50 at 72 h was 0.83

What the record says about [Se]=C=NCc1ccccc1 [BENZYLISOSELENOCYANATE] : log10 of GI50 at 72 h is 0.61

Lab note: CSc1nc(NCc2ccc([Se]C)cc2)c2ccccc2n1 gave log10 of GI50 at 72 h of 1.87

Form: compound = CSc1ccc(CNc2nc(SC)nc3ncccc23)cc1 ; log10 of GI50 at 72 h = -0.22

Form field log10 of GI50 at 72 h, entry CCCCC[Se]c1nc(NCc2ccc(SC)cc2)c2ccccc2n1 : 1.54
